Reported T/C is given for each of the following compounds.
Tested on: P388 leukemia ip, CD2F1 mice, survival T/C
EXPERIMENT_SUMMARY: NCI In Vivo Anticancer Drug Screen. Data for tumor model P388 Leukemia (intraperitoneal) in CD2F1 (CDF1) mice
CONDITION_NOTES: endpoint: median survival time; dose: 12.5 mg/kg/injection; schedule: Q01DX009 (ip); vehicle: saline; higher = longer survival
Protocol: The antitumor activity of compounds was measured in mice bearing transplantable tumors. Survival or tumor size were measured and the results are expressed as the measurement made in the treated group (T) divided by the measurement made in the vehicle treated control group (C). The tumor model used in this assay is P388 Leukemia (intraperitoneal) in CD2F1 (CDF1) mice
Toxic doses and inconclusive results are not listed.

Prompt: Returns the measured T/C for the input compound. Input: "CCN(CC)CCNC1=C(Cl)C(=O)c2ccccc2C1=O"
Response: 101 % of control

Prompt: # get_value(readout='T/C', item= "C[n+]1cc2ccccc2c2ccccc21" )
Response: 120 % of control

Prompt: Any idea what its T/C is? The compound is O=C1C2C3CCC(O3)C2C(=O)N1SC(Cl)(Cl)Cl (stereo not drawn)
Response: 100 % of control

Prompt: Reported T/C, compound CC1CCC(C)N1P(=O)(N1CC1)N1CC1 (stereo not drawn) : ____
Response: 110 % of control

Prompt: I would be grateful if you could share the reported T/C for "NNC(=O)c1ccccc1Cl" .
Response: 100 % of control

====

In this section, each of the molecules is paired with its reported T/C.
Tested on: P388 leukemia ip, CD2F1 mice, survival T/C
EXPERIMENT_SUMMARY: NCI In Vivo Anticancer Drug Screen. Data for tumor model P388 Leukemia (intraperitoneal) in CD2F1 (CDF1) mice
CONDITION_NOTES: endpoint: median survival time; dose: 100.0 mg/kg/injection; schedule: Q01DX005 (ip); vehicle: saline with Tween-80; higher = longer survival
Inconclusive results and toxic doses are left out.

Observe how each entry below is paired with its result.
> print(dat)
                                   molecule       assay.value
1                CCNC(=O)N1CC(=O)Nc2ccccc21   96 % of control
2  CC1(c2ccccc2)COC(=O)O/C1=N/OCc1ccccc1 (stereo not given)  107 % of control
3              CS(=O)(=O)NCCSSCCNS(C)(=O)=O  103 % of control

Prompt: Please tell me: T/C of "S=P(Oc1cc(Cl)c(Cl)cc1Cl)(N1CCN(c2cccc(Cl)c2)CC1)N1CCN(c2cccc(Cl)c2)CC1" , system P388 leukemia ip, CD2F1 mice, survival T/C?
Response: 88 % of control

Prompt: Enter reported T/C observed with P388 leukemia ip, CD2F1 mice, survival T/C for "CCOc1ccc(/C=C(\C(=O)c2ccccc2)S(=O)(=O)c2ccc(OC)cc2)cc1OC"
Response: 92 % of control

====

// values below are reported T/C
Test system: P388 leukemia ip, CD2F1 mice, survival T/C
EXPERIMENT_SUMMARY: NCI In Vivo Anticancer Drug Screen. Data for tumor model P388 Leukemia (intraperitoneal) in CD2F1 (CDF1) mice
CONDITION_NOTES: endpoint: median survival time; dose: 100.0 mg/kg/injection; schedule: Q04DX003 (ip); vehicle: saline with Tween-80; higher = longer survival
Inconclusive results and toxic doses are left out.

> print(dat)
                         cpd.smiles       assay.value
1  N#Cc1cnn(-c2cc(Cl)c(Cl)cc2Cl)c1N   99 % of control
2             CC(=O)Nc1ccccc1C(C)=O  100 % of control

Now consider the entry below.
Prompt: Give its T/C value. Item: "Cc1ccc(S(=O)(=O)N2C(=O)CCC2=O)cc1"
Response: 105 % of control
